# ASSAYED_TARGET: von Hippel-Lindau disease tumor suppressor/Inactive tyrosine-protein kinase transmembrane receptor ROR1 (Homo sapiens, UniProt P40337+Q01973)
# Sequence (P40337 whole entry): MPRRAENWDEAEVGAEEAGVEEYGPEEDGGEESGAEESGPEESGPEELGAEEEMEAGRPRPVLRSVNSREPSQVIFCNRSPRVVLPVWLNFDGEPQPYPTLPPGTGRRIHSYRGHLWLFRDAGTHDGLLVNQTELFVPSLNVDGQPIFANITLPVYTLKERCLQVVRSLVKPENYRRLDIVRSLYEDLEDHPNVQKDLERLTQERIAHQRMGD
# Sequence (Q01973 30-937 partner limits assumed): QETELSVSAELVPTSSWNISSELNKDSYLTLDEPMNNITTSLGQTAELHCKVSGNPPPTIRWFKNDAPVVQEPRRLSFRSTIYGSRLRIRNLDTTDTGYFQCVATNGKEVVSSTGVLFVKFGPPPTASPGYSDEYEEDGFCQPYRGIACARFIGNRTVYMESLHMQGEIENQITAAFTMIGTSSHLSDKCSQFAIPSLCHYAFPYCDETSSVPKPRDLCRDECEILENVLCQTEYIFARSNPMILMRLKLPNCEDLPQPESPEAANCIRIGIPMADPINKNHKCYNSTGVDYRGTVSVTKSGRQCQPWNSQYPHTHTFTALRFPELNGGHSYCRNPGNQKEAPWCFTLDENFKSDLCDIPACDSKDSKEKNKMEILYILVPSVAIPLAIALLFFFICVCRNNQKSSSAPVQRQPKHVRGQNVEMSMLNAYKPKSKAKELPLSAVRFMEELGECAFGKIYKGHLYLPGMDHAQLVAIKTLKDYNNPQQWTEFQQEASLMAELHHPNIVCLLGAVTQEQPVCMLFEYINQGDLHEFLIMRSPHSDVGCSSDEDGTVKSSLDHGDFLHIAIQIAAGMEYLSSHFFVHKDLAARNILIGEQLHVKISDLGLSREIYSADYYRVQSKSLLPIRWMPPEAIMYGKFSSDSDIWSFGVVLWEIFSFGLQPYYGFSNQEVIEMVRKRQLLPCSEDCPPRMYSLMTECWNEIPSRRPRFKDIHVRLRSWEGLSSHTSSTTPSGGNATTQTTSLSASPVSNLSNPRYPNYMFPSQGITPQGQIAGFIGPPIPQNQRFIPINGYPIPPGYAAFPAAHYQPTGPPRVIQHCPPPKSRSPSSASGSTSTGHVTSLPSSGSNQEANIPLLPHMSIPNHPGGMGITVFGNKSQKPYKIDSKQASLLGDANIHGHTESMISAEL
# TEST_METHOD_NOTES: PROTAC activity at VHL/ROR1 in human NCI-H23 cells assessed as induction of ROR1 degradation at 1 uM incubated for 24 hrs by Western blot analysis relative to control
# Format: cell-based
ASSAY_METRIC: Activity (%)

SMILES_ENTRY	REPORTED_MEASUREMENT
CCN1CCC(Nc2c(Br)cnc3[nH]c(-c4ccc(N5CCN(C(=O)CCC(=O)N[C@H](C(=O)N6C[C@H](O)C[C@H]6C(=O)NCc6ccc(-c7scnc7C)cc6)C(C)(C)C)CC5)cc4)nc23)CC1	85.8
CCN1CCC(Nc2c(Br)cnc3[nH]c(-c4ccc(N5CCN(C(=O)CCCCC(=O)N[C@H](C(=O)N6C[C@H](O)C[C@H]6C(=O)NCc6ccc(-c7scnc7C)cc6)C(C)(C)C)CC5)cc4)nc23)CC1	35.3
CCN1CCC(Nc2c(Br)cnc3[nH]c(-c4ccc(N5CCN(CCCCCCCC(=O)N[C@H](C(=O)N6C[C@H](O)C[C@H]6C(=O)NCc6ccc(-c7scnc7C)cc6)C(C)(C)C)CC5)cc4)nc23)CC1	99.6

----------
# ASSAYED_TARGET: Protein cereblon/Inactive tyrosine-protein kinase transmembrane receptor ROR1 (Homo sapiens) (UniProt Q96SW2+Q01973)
# Sequence (Q01973 whole entry, looked up): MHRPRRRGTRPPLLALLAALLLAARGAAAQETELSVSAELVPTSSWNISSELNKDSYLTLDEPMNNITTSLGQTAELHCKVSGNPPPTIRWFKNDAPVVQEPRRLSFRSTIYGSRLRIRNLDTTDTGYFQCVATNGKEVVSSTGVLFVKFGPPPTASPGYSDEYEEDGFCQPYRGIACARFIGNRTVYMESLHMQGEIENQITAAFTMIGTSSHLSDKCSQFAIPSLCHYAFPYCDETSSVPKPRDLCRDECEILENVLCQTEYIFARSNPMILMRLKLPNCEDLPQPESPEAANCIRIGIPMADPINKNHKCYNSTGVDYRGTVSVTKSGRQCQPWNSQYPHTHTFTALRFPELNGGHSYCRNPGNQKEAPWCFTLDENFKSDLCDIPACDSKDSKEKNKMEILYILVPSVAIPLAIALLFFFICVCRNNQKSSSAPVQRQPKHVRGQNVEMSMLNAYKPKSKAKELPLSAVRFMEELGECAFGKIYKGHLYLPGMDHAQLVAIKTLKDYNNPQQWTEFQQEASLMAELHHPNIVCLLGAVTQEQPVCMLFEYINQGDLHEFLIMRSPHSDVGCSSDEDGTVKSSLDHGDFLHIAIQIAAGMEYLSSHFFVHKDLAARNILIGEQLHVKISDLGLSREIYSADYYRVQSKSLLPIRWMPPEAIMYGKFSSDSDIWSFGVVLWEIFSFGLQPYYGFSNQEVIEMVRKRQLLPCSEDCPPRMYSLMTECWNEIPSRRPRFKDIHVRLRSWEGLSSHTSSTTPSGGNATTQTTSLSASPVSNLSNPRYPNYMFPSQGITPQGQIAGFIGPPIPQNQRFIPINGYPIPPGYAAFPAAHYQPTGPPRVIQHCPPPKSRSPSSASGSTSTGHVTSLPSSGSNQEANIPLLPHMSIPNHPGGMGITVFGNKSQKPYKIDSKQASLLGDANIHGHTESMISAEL
# Sequence (Q96SW2 whole entry, looked up): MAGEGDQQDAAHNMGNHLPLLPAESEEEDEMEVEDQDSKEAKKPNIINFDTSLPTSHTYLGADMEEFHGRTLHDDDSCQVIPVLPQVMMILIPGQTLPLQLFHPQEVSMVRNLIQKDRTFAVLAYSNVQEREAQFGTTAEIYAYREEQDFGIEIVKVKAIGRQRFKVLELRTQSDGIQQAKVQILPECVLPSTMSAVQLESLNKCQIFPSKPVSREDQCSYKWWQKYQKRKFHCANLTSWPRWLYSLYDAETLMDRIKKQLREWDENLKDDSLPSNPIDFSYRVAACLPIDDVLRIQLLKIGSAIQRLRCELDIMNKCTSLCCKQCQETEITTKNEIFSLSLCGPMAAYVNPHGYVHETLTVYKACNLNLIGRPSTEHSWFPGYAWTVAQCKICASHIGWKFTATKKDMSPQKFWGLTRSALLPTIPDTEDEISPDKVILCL
# TEST_METHOD_NOTES: PROTAC activity at CRBN/ROR1 in human NCI-H23 cells assessed as induction of ROR1 degradation at 0.1 uM incubated for 24 hrs by Western blot analysis relative to control
# Assay type: cell-based
ASSAY_METRIC: Activity (%)

COMPOUND	UNIT_LABEL	REPORTED_MEASUREMENT
CCN1CCC(Nc2c(Br)cnc3[nH]c(-c4ccc(N5CCN(CCOCCOCCNc6ccc7c(c6)C(=O)N(C6CCC(=O)NC6=O)C7=O)CC5)cc4)nc23)CC1 (configuration not stated)	%	0
CCN1CCC(Nc2c(Br)cnc3[nH]c(-c4ccc(N5CCN(C(=O)CCCCCCCNc6ccc7c(c6)C(=O)N(C6CCC(=O)NC6=O)C7=O)CC5)cc4)nc23)CC1 (configuration not stated)	%	30.5
CCN1CCC(Nc2c(Br)cnc3[nH]c(-c4ccc(N5CCN(C(=O)CCCNc6ccc7c(c6)C(=O)N(C6CCC(=O)NC6=O)C7=O)CC5)cc4)nc23)CC1 (configuration not stated)	%	11
CCN1CCC(Nc2c(Br)cnc3[nH]c(-c4ccc(N5CCN(C(=O)COc6cccc7c6C(=O)N(C6CCC(=O)NC6=O)C7=O)CC5)cc4)nc23)CC1 (configuration not stated)	%	38
CCN1CCC(Nc2c(Br)cnc3[nH]c(-c4ccc(N5CCN(C(=O)CCCCCCCCCNc6cccc7c6C(=O)N(C6CCC(=O)NC6=O)C7=O)CC5)cc4)nc23)CC1 (configuration not stated)	%	6.7
CCN1CCC(Nc2c(Br)cnc3[nH]c(-c4ccc(N5CCN(CCOCCOCCOCCNc6cccc7c6C(=O)N(C6CCC(=O)NC6=O)C7=O)CC5)cc4)nc23)CC1 (configuration not stated)	%	30.4
CCN1CCC(Nc2c(Br)cnc3[nH]c(-c4ccc(N5CCN(C(=O)CNc6ccc7c(c6)C(=O)N(C6CCC(=O)NC6=O)C7=O)CC5)cc4)nc23)CC1 (configuration not stated)	%	0.8
CCN1CCC(Nc2c(Br)cnc3[nH]c(-c4ccc(N5CCN(C(=O)CCCCCOc6cccc7c6C(=O)N(C6CCC(=O)NC6=O)C7=O)CC5)cc4)nc23)CC1 (configuration not stated)	%	0
CCN1CCC(Nc2c(Br)cnc3[nH]c(-c4ccc(N5CCN(C(=O)CCCCCCCOc6ccc7c(c6)C(=O)N(C6CCC(=O)NC6=O)C7=O)CC5)cc4)nc23)CC1 (configuration not stated)	%	0
CCN1CCC(Nc2c(Br)cnc3[nH]c(-c4ccc(N5CCN(C(=O)CCCCCOc6ccc7c(c6)C(=O)N(C6CCC(=O)NC6=O)C7=O)CC5)cc4)nc23)CC1 (configuration not stated)	%	0
CCN1CCC(Nc2c(Br)cnc3[nH]c(-c4ccc(N5CCN(C(=O)CCCOc6cccc7c6C(=O)N(C6CCC(=O)NC6=O)C7=O)CC5)cc4)nc23)CC1 (configuration not stated)	%	0
CCN1CCC(Nc2c(Br)cnc3[nH]c(-c4ccc(N5CCN(C(=O)CCCCCCCCCOc6cccc7c6C(=O)N(C6CCC(=O)NC6=O)C7=O)CC5)cc4)nc23)CC1 (configuration not stated)	%	38.7

----------
# ASSAYED_TARGET: Protein cereblon/Inactive tyrosine-protein kinase transmembrane receptor ROR1 (Homo sapiens) (UniProt Q96SW2+Q01973)
# TEST_METHOD_NOTES: PROTAC activity at CRBN/ROR1 in human NCI-H23 cells assessed as induction of ROR1 degradation at 1 uM incubated for 24 hrs by Western blot analysis relative to control
# Assay type: cell-based
Activity overview
ASSAY_METRIC: Activity (%)

> print(dat)
                                   compound  assay.metric  reported.measurement
1  CCN1CCC(Nc2c(Br)cnc3[nH]c(-c4ccc(N5CCN(C(=O)CCCOc6cccc7c6C(=O)N(C6CCC(=O)NC6=O)C7=O)CC5)cc4)nc23)CC1 (stereo not drawn)      Activity                  50.6
2  CCN1CCC(Nc2c(Br)cnc3[nH]c(-c4ccc(N5CCN(C(=O)COc6ccc7c(c6)C(=O)N(C6CCC(=O)NC6=O)C7=O)CC5)cc4)nc23)CC1 (stereo not drawn)      Activity                     0
3  CCN1CCC(Nc2c(Br)cnc3[nH]c(-c4ccc(N5CCN(C(=O)CNc6ccc7c(c6)C(=O)N(C6CCC(=O)NC6=O)C7=O)CC5)cc4)nc23)CC1 (stereo not drawn)      Activity                    71

----------
# ASSAYED_TARGET: Protein cereblon/Inactive tyrosine-protein kinase transmembrane receptor ROR1 (Homo sapiens) (UniProt Q96SW2+Q01973)
# TEST_METHOD_NOTES: PROTAC activity at CRBN/ROR1 in human NCI-H23 cells assessed as induction of ROR1 degradation at 0.1 uM incubated for 24 hrs by Western blot analysis relative to control
# Assay type: cell-based
Please respond with true (1) when measured Activity is strictly beneath 3%, and with false (0) in all other cases.

COMPOUND	CLASS_ASSIGNMENT
CCN1CCC(Nc2c(Br)cnc3[nH]c(-c4ccc(N5CCN(C(=O)CCCCCCCCCOc6ccc7c(c6)C(=O)N(C6CCC(=O)NC6=O)C7=O)CC5)cc4)nc23)CC1 (stereo not drawn)	true (1)
CCN1CCC(Nc2c(Br)cnc3[nH]c(-c4ccc(N5CCN(C(=O)CCCCCNc6cccc7c6C(=O)N(C6CCC(=O)NC6=O)C7=O)CC5)cc4)nc23)CC1 (stereo not drawn)	false (0)
CCN1CCC(Nc2c(Br)cnc3[nH]c(-c4ccc(N5CCN(CCNc6ccc7c(c6)C(=O)N(C6CCC(=O)NC6=O)C7=O)CC5)cc4)nc23)CC1 (stereo not drawn)	false (0)
CCN1CCC(Nc2c(Br)cnc3[nH]c(-c4ccc(N5CCN(C(=O)CCCNc6cccc7c6C(=O)N(C6CCC(=O)NC6=O)C7=O)CC5)cc4)nc23)CC1 (stereo not drawn)	false (0)
CCN1CCC(Nc2c(Br)cnc3[nH]c(-c4ccc(N5CCN(C(=O)CCCOc6ccc7c(c6)C(=O)N(C6CCC(=O)NC6=O)C7=O)CC5)cc4)nc23)CC1 (stereo not drawn)	true (1)
CCN1CCC(Nc2c(Br)cnc3[nH]c(-c4ccc(N5CCN(C(=O)CCCCCCCOc6cccc7c6C(=O)N(C6CCC(=O)NC6=O)C7=O)CC5)cc4)nc23)CC1 (stereo not drawn)	false (0)
CCN1CCC(Nc2c(Br)cnc3[nH]c(-c4ccc(N5CCN(CCCCCCNc6ccc7c(c6)C(=O)N(C6CCC(=O)NC6=O)C7=O)CC5)cc4)nc23)CC1 (stereo not drawn)	false (0)
CCN1CCC(Nc2c(Br)cnc3[nH]c(-c4ccc(N5CCN(CCCNc6cccc7c6C(=O)N(C6CCC(=O)NC6=O)C7=O)CC5)cc4)nc23)CC1 (stereo not drawn)	false (0)
CCN1CCC(Nc2c(Br)cnc3[nH]c(-c4ccc(N5CCN(CCCNc6ccc7c(c6)C(=O)N(C6CCC(=O)NC6=O)C7=O)CC5)cc4)nc23)CC1 (stereo not drawn)	false (0)
CCN1CCC(Nc2c(Br)cnc3[nH]c(-c4ccc(N5CCN(CCOCCOCCNc6cccc7c6C(=O)N(C6CCC(=O)NC6=O)C7=O)CC5)cc4)nc23)CC1 (stereo not drawn)	false (0)
CCN1CCC(Nc2c(Br)cnc3[nH]c(-c4ccc(N5CCN(CCNc6cccc7c6C(=O)N(C6CCC(=O)NC6=O)C7=O)CC5)cc4)nc23)CC1 (stereo not drawn)	false (0)
CCN1CCC(Nc2c(Br)cnc3[nH]c(-c4ccc(N5CCN(C(=O)COc6ccc7c(c6)C(=O)N(C6CCC(=O)NC6=O)C7=O)CC5)cc4)nc23)CC1 (stereo not drawn)	true (1)
CCN1CCC(Nc2c(Br)cnc3[nH]c(-c4ccc(N5CCN(C(=O)CCCCCCCCCNc6ccc7c(c6)C(=O)N(C6CCC(=O)NC6=O)C7=O)CC5)cc4)nc23)CC1 (stereo not drawn)	true (1)
